Origin of the recorded values: ChEMBL document CHEMBL5058577

# Tested on: U2OS
# Experiment: Multiplex assay against U2OS
# Assay type: toxicity, cell-based
# Condition Context: human, 24 h, 1 µM, compound concentration 1 uM, replicate 1
Value Kind: Population Fragmented Nuclei (%)
Give bare numbers, in %.

Record excerpt, results attached:
COc1cc(Nc2ncc3c(n2)-c2ccc(Cl)cc2C(c2c(F)cccc2OC)=NC3)ccc1C(=O)O = 26
CC(C)(O)C(=O)N1CCN(c2ccc(C(F)(F)F)c(C3=C(c4c[nH]c5ccccc45)C(=O)NC3=O)c2)CC1 = 27
C[C@H](NC(=O)CNC(=O)c1cccc(Cl)c1)c1ccccc1 = 19
CN1C[C@H](C(=O)N[C@]2(C)O[C@@]3(O)[C@@H]4CCCN4C(=O)[C@H](Cc4ccccc4)N3C2=O)C[C@@H]2c3cccc4[nH]cc(c34)C[C@H]21.CS(=O)(=O)O [DIHYDROERGOTAMINE MESYLATE] = 23

Batch of 4 compounds: report Population Fragmented Nuclei (%) for each.
1. N[C@](CC1c2ccccc2Oc2ccccc21)(C(=O)O)[C@H]1C[C@@H]1C(=O)O
2. COc1c(Nc2ccc(S(C)(=O)=O)nc2C)ncnc1OC1CCN(C(=O)OC(C)C)CC1
3. CC(C)(C)c1ccc(CSc2cnn(C(C)(C)C)c(=O)c2Cl)cc1
4. CN1CCN2c3ccccc3Cc3ccccc3C2C1.Cl (stereo not drawn) [MIANSERIN HYDROCHLORIDE]

OUT:
1. 20
2. 24
3. 28
4. 34
